Every entry's value here was drawn from PubChem BioAssay (Tox21).

# measurement.notes: qHTS assay for small molecule agonists of the p53 signaling pathway - cell viability (AID 651633);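 further: p53RE-bla HCT reporter cells with a stable beta-lactamase p53 reporter; on the % scale 0 is the no-effect control and ±100 the full control effect; nearly all actives have a fitted effect of over 30% in size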
# measurement.setup: p53RE-bla HCT-116 viability, ATP luminescence, 16 h; series mostly up to 83.3 µM
Records with an inconclusive call do not appear. Active and inactive are the calls of the source. The call rests on the fitted dose curve.
Response enum: True (active), False (inactive)

Assay outcome for O=C1Nc2ccc(Cl)cc2C(c2ccccc2Cl)=NC1O (centres undefined) : what was it? False

Continuing:
Lab log entry: `CN1CSC(=S)N(C)C1` — outcome as called in the assay? False

# fetch the recorded call for `CCCN1CCC[C@H](c2cccc(O)c2)C1` here False

Can you look up the reported call for `CCOc1ccc2c3c1O[C@H]1[C@@H](O)C=C[C@H]4[C@@H](C2)N(C)CC[C@@]341` for me? False

====

# measurement.notes: qHTS assay to test for compound auto fluorescence at 590 nm (red) in HEK293 cell free culture (AID 720683); further: on the % scale 0 is the no-effect control and ±100 the full control effect
# measurement.setup: cell-free medium autofluorescence, Ex540/Em590 red; series mostly up to 46 µM
Activity calls are given as the source filed them. Calls follow the shape of the dose curve; as a rule, active = well fitted curve in the direction sought with a large enough effect in the repeat runs; inconclusive = weak or mixed curves; inactive = flat fitted curve, though single readings scatter.
endpoint: outcome

// worked examples, outcome included
So what's the measured outcome for this one? `C[C@@H]1[C@@H]2Cc3ccc(O)cc3[C@@]1(C)CCN2CCc1ccccc1` inactive

Look up outcome: `CC1(C)[C@H](C=C(Cl)Cl)[C@H]1C(=O)OCc1c(F)c(F)cc(F)c1F` inactive

Given `c1ccc2c(c1)Sc1ccccc1N2C[C@@H]1CN2CCC1CC2` , state its recorded outcome. inactive

Which outcome reading was recorded for the molecule `CN1CCCC(=C(c2cccs2)c2cccs2)C1` ? inactive

Any idea what its outcome is? The molecule is `CC(C)(O)[C@@H]1[C@H]2OC(=O)[C@@H]1[C@]1(O)C[C@H]3O[C@]34C(=O)O[C@H]2[C@]14C` inactive

May I ask what outcome has been recorded for `C[C@]12N[C@H](Cc3ccccc31)c1ccccc12` ? inactive

Further cases:
What does the record list as outcome for `C[C@]12CC[C@H]3[C@@H](CCC4=C(Cl)C(=O)CC[C@@]43C)[C@@H]1CC[C@@H]2O` ? inactive

Returns the measured outcome for the input molecule. Input: `c1csc(C2(N3CCCCC3)CCCCC2)c1` inactive

Value lookup for outcome; key = `CCOc1ccc2c3c1O[C@H]1[C@@H](O)C=C[C@H]4[C@@H](C2)N(C)CC[C@@]341` inactive

outcome lookup needed for `CN1C(=O)CC(=O)N(c2ccccc2)c2cc(Cl)ccc21` , thanks. inactive

====

# tested.on: Acetylcholinesterase (Homo sapiens)
# measurement.notes: Acetylcholinesterase (AChE) small molecule antagonists: enzyme-based qHTS assay with human liver microsomes (AID 1347399); further: on the % scale 0 is the no-effect control and ±100 the full control effect; nearly all actives have a fitted effect of over 60% in size
# measurement.setup: qHTS inhibition; series mostly up to 115 µM
Calls of active or inactive are those of the source. Calls come from the whole dose curve.
Entry note: the call must match one of true (1) = active, false (0) = inactive

For orientation, consider the following solved cases.
# outcome recorded in this test, key = CC1(C)S[C@@H]2[C@H](NC(=O)C(C(=O)O)c3ccccc3)C(=O)N2[C@H]1C(=O)O (stereo partly specified) false (0)

Short answer needed: outcome of this test for `C=CC(=O)CC` ? false (0)

What was the test verdict on `CCCC(=O)O[C@]1(C(=O)CC)CC[C@H]2[C@@H]3CCC4=CC(=O)CC[C@]4(C)[C@H]3[C@@H](O)C[C@@]21C` ? false (0)

What is the recorded call for this compound in the test? `O=C(N/N=C/c1ccc([N+](=O)[O-])o1)c1ccc(O)cc1` false (0)

Please indicate how the test categorized `CCCCCC#CC(=O)OC` . false (0)

# outcome recorded in this test, key = C=C1C(C)(C)[C@@]2(Cl)C(Cl)[C@]1(Cl)C(Cl)(Cl)C2(Cl)Cl (stereo partly specified) false (0)

Field: next compound
How did this test come out for `CCC/C=C(\C=O)CC` ? false (0)

====

# measurement.notes: qHTS assay to identify small molecule antagonists of the thyroid receptor (TR) signaling pathway - cell viability counter screen (AID 743064); further: nearly all actives have a fitted effect of over 50% in size; further: potency means the concentration at half of the fitted maximal effect
# measurement.setup: GH3.TRE-Luc viability, CellTiter-Fluor, 24 h; series mostly up to 70.3 µM
# Excerpt: National Center for Advancing Translational Sciences [NCATS] NIH Chemical Genomics Center [NCGC] U.S. Environmental Protection Agency [EPA] National Institutes of Environmental Health Sciences [NIEHS] National Toxicology Program [NTP] U.S. Food and Drug Administration [FDA] Thyroid receptor (TR), a nuclear hormone receptor, plays an important role in development, proliferation, differentiation, metabolism, brain function, and cardiovascular system. […]
Records with an inconclusive call do not appear. Activity calls are given as the source filed them. The call rests on the fitted dose curve; in most records, active means well fitted cell-killing curve with a large enough effect in the repeat runs; inconclusive means weak or mixed curves, or effect the other way; inactive means no such curve, though single readings can be large or run the other way.
endpoint: Potency

Below, 4 compounds whose answers are already recorded.
Please report the recorded Potency for CCNCC(O)c1cccc(O)c1 (stereo not drawn) . inactive

What measured Potency goes with `CN[C@@H](C)Cc1ccccc1` ? inactive

Look at this compound and give its reported Potency. `Cc1cc(C(C)(C)c2ccc(O)c(C)c2)ccc1O` inactive

# get_value(readout='Potency', item= CC(Cc1ccccc1)NC=O (stereo not drawn) ) inactive

Further cases:
Consider the compound `O=P(O)(O)C(Cl)(Cl)P(=O)(O)O` and give its measured Potency. inactive

Any idea what its Potency is? The compound is CCCCNCC(O)c1ccc(O)cc1 (stereo not drawn) inactive

Need Potency, item `Cc1ccc(N(SC(F)(Cl)Cl)S(=O)(=O)N(C)C)cc1` 2730 nM (active)

Value lookup for Potency; key = `O=C1CN(O)C(c2ccccc2)=c2cc(Cl)ccc2=N1` inactive

For the compound `OC[C@@H](O)[C@H]1O[C@@H]2O[C@@H](C(Cl)(Cl)Cl)O[C@@H]2[C@H]1O` , what Potency is on record? inactive

For the compound `CCN(CC)/[N+]([O-])=N/O` , what Potency is on record? inactive

// lookup Potency for CNC(C)C(O)c1ccc(O)cc1 (stereo not drawn) inactive

Give the measured Potency of `[H+].[H+].[Hg+2].[O-]B([O-])[O-].[c-]1ccccc1` . 1060 nM (active)

Please report the recorded Potency for `O[C@H]1[C@H]2[C@H](O)CCCN2C[C@H]1O` . inactive

====

# tested.on: Peroxisome proliferator-activated receptor delta (Homo sapiens) (UniProt Q03181)
# Sequence (Q03181 whole entry, looked up): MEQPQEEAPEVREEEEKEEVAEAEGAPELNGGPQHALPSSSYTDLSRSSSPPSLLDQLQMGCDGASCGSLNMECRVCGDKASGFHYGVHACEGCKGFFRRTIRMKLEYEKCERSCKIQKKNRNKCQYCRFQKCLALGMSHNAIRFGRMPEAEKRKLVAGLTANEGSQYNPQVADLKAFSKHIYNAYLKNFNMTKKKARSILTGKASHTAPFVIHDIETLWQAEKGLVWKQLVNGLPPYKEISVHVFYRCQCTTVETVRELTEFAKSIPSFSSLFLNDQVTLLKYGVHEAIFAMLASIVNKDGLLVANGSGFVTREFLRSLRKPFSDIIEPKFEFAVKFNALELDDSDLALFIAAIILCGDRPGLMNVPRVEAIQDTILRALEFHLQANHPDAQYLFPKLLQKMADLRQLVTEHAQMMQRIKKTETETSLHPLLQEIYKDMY
# measurement.notes: qHTS assay to identify small molecule agonists of the peroxisome proliferator-activated receptor delta (PPARd) signaling pathway (AID 743212);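 further: HEK293H cells with PPARd UAS beta-lactamase reporter GeneBLAzer system; on the % scale 0 is the no-effect control and ±100 the full control effect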
# measurement.setup: HEK293H PPARd-UAS-bla, beta-lactamase FRET ratio, 17 h; series mostly up to 62.6 µM
Records with an inconclusive call do not appear. Active and inactive are the calls of the source. Calls follow the shape of the full dose curve.
endpoint: outcome

Fill blank: measured outcome of the molecule `ClC1=C(Cl)[C@]2(Cl)[C@@H]3[C@@H](Cl)[C@H]4O[C@H]4[C@@H]3C1(Cl)C2(Cl)Cl` is ____. inactive

Requested read-out: outcome. Entry: `Cc1cc(C(C)(C)c2ccc(O)c(C)c2)ccc1O` inactive

Would you mind telling me what outcome value was observed for `Nc1ccc(Cl)cc1Cl` ? inactive

Param item = `CCOC(=O)C(O)(c1ccc(Cl)cc1)c1ccc(Cl)cc1` ; retrieve measured outcome. inactive

Return reported outcome; argument: `Clc1ccccc1-c1ccccc1Cl` inactive

Requested field: outcome. Item: `C=CCOc1c(Br)cc(C(C)(C)c2cc(Br)c(OCC=C)c(Br)c2)cc1Br` inactive

Please find the next molecule below.
Give its outcome value. Item: `O=C1C(I)=CC(=C(c2cc(I)c(O)c(I)c2)c2ccccc2C(=O)O)C=C1I` inactive

====

# tested.on: Acetylcholinesterase (Homo sapiens)
# measurement.notes: Acetylcholinesterase (AChE) small molecule antagonists: enzyme-based qHTS assay with human liver microsomes (AID 1347399); further: on the % scale 0 is the no-effect control and ±100 the full control effect; nearly all actives have a fitted effect of over 60% in size
# measurement.setup: series mostly up to 115 µM
Active and inactive are the calls of the source. Calls come from the whole dose curve.
Measured activity change, negative = inhibition accompanies every entry in the list below.

Known results for molecules:
What activity change, negative = inhibition value was documented for this molecule, `CCCCNc1ccc(NCCCC)c2c1C(=O)c1ccccc1C2=O` ? -2.27% [at 23.6 µM] (inactive)

What value of activity change, negative = inhibition has been recorded for this entry: `O=C(O)C[C@H](O)C[C@H](O)/C=C/c1c(C2CC2)nc2ccccc2c1-c1ccc(F)cc1` -1.12% [at 23.6 µM] (inactive)

Would you kindly share the measured activity change, negative = inhibition for C[C@@H]1NC(=O)[C@@H](N)CNC(=O)[C@H](C2CCNC(N)=N2)NC(=O)/C(=C/NC(N)=O)NC(=O)[C@H](CNC(=O)C[C@@H](N)CCCN)NC1=O (some centres undefined) ? -1.43% [at 0.435 µM] (inactive)

Which activity change, negative = inhibition is reported for this molecule? `CCCCCCCCCCCCCCCCCBr` -2.26% [at 23.6 µM] (inactive)

Entry CCN(CCO)CCCC(C)Nc1ccnc2cc(Cl)ccc12 (centres undefined) has what activity change, negative = inhibition? -0.168% [at 10.5 µM] (inactive)

---
Return reported activity change, negative = inhibition; argument: `CCCCCCCCCCCCCCCC(=O)OC` 0.243% [at 23.6 µM] (inactive)

Sample `Cc1[nH]c(C)c(Cl)c(=O)c1Cl` — what was its activity change, negative = inhibition? -0.336% [at 23.6 µM] (inactive)

Recorded activity change, negative = inhibition for `CN(C)CCCN(C)C` , please? 0.146% [at 10.5 µM] (inactive)

Suppose we examine the molecule `COC(=O)c1ccc2cc(C(=O)OC)ccc2c1` ; what activity change, negative = inhibition value has been reported? -4.52% [at 23.6 µM] (inactive)

Sample `C[C@@H]1CC[C@@]2(OC1)O[C@H]1C[C@H]3[C@@H]4CC[C@H]5C[C@@H](O)CC[C@]5(C)[C@H]4CC(=O)[C@]3(C)[C@H]1[C@@H]2C` — what was its activity change, negative = inhibition? -3.36% [at 10.5 µM] (inactive)

Return reported activity change, negative = inhibition; argument: `CCc1nccnc1CC` 0.443% [at 23.6 µM] (inactive)

What does the data say about its activity change, negative = inhibition? Entry: `Cn1ccc2cc3c(cc21)CCN3C(=O)Nc1cccnc1` 2.86% [at 23.6 µM] (inactive)
